Format: physicochemical
Set-up: key: 1 = fibrils present; 0 non-fibrillar structures
measurement-context: TEM, 1 mg/mL, uranyl acetate stain, qualitative
measured-endpoint: Fibril / Fibril Formation

Let me know recorded Fibril / Fibril Formation for RGDSKIKIQIC , thanks.
1

Tell us which Fibril / Fibril Formation value is on record for KAQCTLP
0

Look up Fibril / Fibril Formation of CKIKIQIRGD and report it.
1

Return Fibril / Fibril Formation for the following substance: KFKFQFNMW
1

Look up and report measured Fibril / Fibril Formation for this entry: KFKFEFEF
1

Note Fibril / Fibril Formation for the substance shown: KIRGKFEKED
0

Assign Fibril / Fibril Formation to the following record: KFKFQFFF
1

Quick one: give measured Fibril / Fibril Formation for QCKFKQFF
1

For the substance QCKFKFQF , give its reported Fibril / Fibril Formation.
1

Indicate the recorded Fibril / Fibril Formation value for this substance: KIEIQINM
1

Hello, please tell me recorded Fibril / Fibril Formation for this one: KFQFNMW
1

Identify the reported Fibril / Fibril Formation for the following entry. HHHHKIKIKIKIYYYY
0

Determine from records and report Fibril / Fibril Formation for KIKIKIQI
1

Return value of Fibril / Fibril Formation for input CRLSLSLS , no commentary.
1

Return Fibril / Fibril Formation (reported value) for this substance: KIKQII
0

Fill in Fibril / Fibril Formation for record QCKFKQFFNM
1

Return Fibril / Fibril Formation (reported value) for this substance: KNERIKNERI
0

Fill in Fibril / Fibril Formation for record CKIKIQI
1

Please report the measured Fibril / Fibril Formation for KYKGAIIGNIK
0

Identify Fibril / Fibril Formation associated with the substance KIKIQI
0

Answer with the recorded Fibril / Fibril Formation of RLRLTLC only.
1

Specify measured Fibril / Fibril Formation for KIKIKIKIWW .
0

Entry NMWQKFKFQF needs its Fibril / Fibril Formation filled in; supply it.
1

Retrieve Fibril / Fibril Formation measured for KAKAQA and print it.
0

Given the substance KFKFQFW , write its reported Fibril / Fibril Formation.
1

Give recorded Fibril / Fibril Formation. KFKQFFINMWQ
1

Supply Fibril / Fibril Formation value. Item: NMWQKVGTPL
0

Give the value of Fibril / Fibril Formation reported for the following: CQFQFQF
1

Tell me Fibril / Fibril Formation reported for CKFKFPF
0

Supply recorded Fibril / Fibril Formation for KIKIKIQINMWQ here.
1

Please look at this substance and report its Fibril / Fibril Formation: IIIQGK [reference compound]
0

Give the value of Fibril / Fibril Formation reported for the following: KIKIQIII
1

Answer with the recorded Fibril / Fibril Formation of CETMYDKILKNLSRSR only.
0

# return recorded Fibril / Fibril Formation for entry HIHIQIC
1

Provide only the value of recorded Fibril / Fibril Formation for HGEHGE
0

Hello, please tell me recorded Fibril / Fibril Formation for this one: KIKIQINMWQ
1

Given CKIKQIINMWQ , respond with its Fibril / Fibril Formation.
1

----------
So I've got a bunch of substances here, and I need their Zeta Count Rate / kcps values.
protocol: Turbidity, derived count rate of scattered light
Format: physicochemical
measurement-context: derived count rate of scattered light; mean, std deviation in next column
Answer with the number, then the unit.

Find the measured Zeta Count Rate / kcps of KWKWQW [KB3] and report it.
1545 kcps

Specify measured Zeta Count Rate / kcps for KIKIKIKIYYYY [JR7] .
9918 kcps

Give the value of Zeta Count Rate / kcps reported for the following: QCKIKQII [CK6]
301 kcps

Return the recorded Zeta Count Rate / kcps value; entry: QCKIKIQINM [CK2]
9524 kcps

Quickly give me recorded Zeta Count Rate / kcps for CSISIQI [TM141]
10241.1 kcps

Let me know recorded Zeta Count Rate / kcps for KIKIQI [JJA4] , thanks.
108.3 kcps

Please give the documented Zeta Count Rate / kcps of CKAKAQANMWQ [BL8]
8.967 kcps

Give the measured Zeta Count Rate / kcps for KAKAQANMWQ [JG3]
56.17 kcps

In one line, give reported Zeta Count Rate / kcps of the entry CRFRFQF [CN10] .
390.5 kcps

Return the recorded Zeta Count Rate / kcps value; entry: ILKNLSRSRKIKIQINMWQ [TM92]
306.5 kcps

Quick one: give measured Zeta Count Rate / kcps for CKFKFQFW [TM72]
29210.5 kcps

Dear colleague, please send me the reported Zeta Count Rate / kcps for QCKIKQIINM [CK5] when you can.
20551.06667 kcps

Annotate the substance QCKAKAQANMWQ [CK22] with its measured Zeta Count Rate / kcps.
427.5 kcps

----------
protocol: Zeta-potential measurement
Type: physicochemical
measurement-context: zeta-potential of peptide; source data of Figure 2C
measured-endpoint: Zeta-Potential / mV

Report measured Zeta-Potential / mV; entry is CKIKIQIII
16.2 mV

Specify measured Zeta-Potential / mV for KVKVKVQV .
-0.6533 mV

Supply reported Zeta-Potential / mV belonging to this substance: KFKFQFFF
15.57 mV

Using the record for KIKIKIKIWW , state its measured Zeta-Potential / mV.
15.83 mV

Fill in Zeta-Potential / mV for record RGDKIKIQINMWQ
11.21 mV

In one line, give reported Zeta-Potential / mV of the entry KIKQIINM .
18.1 mV

State its Zeta-Potential / mV for this substance: QCKFKQFFNM
15.12 mV

Quickly give me recorded Zeta-Potential / mV for CEFEFQF
-10.825 mV

Please look at this substance and report its Zeta-Potential / mV: CEIEIQINMWQ
-26.07 mV

Entry QCKIKQIINMWQ [reference compound] needs its Zeta-Potential / mV filled in; supply it.
7.192 mV

Find the measured Zeta-Potential / mV of KIKIQINMWQRGD and report it.
-0.495 mV

Hello, please tell me recorded Zeta-Potential / mV for this one: RGDKIKIQINMC
13.9 mV

Give a short answer stating reported Zeta-Potential / mV for QCKAKAQANM .
-4.641 mV

For NMWQKAKAQA , write its Zeta-Potential / mV.
-4.582 mV

Retrieve Zeta-Potential / mV measured for QCKFKQFF and print it.
3.089 mV

Indicate its recorded Zeta-Potential / mV; the substance in question is CKFKFQFW
16.02 mV

Give reported Zeta-Potential / mV value for CKAKAQANM
-4.618 mV

Return the recorded Zeta-Potential / mV value; entry: KIKIQINAWQ
13.72 mV

Find the measured Zeta-Potential / mV of KFKFQFW and report it.
8.995 mV

Identify measured Zeta-Potential / mV corresponding to CKIKIQINMW
18.43 mV

Tell me Zeta-Potential / mV reported for HHHHKAKAKAKAYYYY
4.787 mV

// fetch Zeta-Potential / mV given entry KAKAQANMWQ
-14.675 mV

Please give the documented Zeta-Potential / mV of KIKQII
-6.459 mV

Check the records and state Zeta-Potential / mV for CQFQFQF
-25.37 mV

----------
Format: physicochemical
Design: key: 1 = fibrils present; 0 non-fibrillar structures
measurement-context: TEM; 1 = fibrils present, 0 = non-fibrillar
Kindly supply the reported Fibril values for the records listed here.
Respond using a number only.

Report measured Fibril; entry is QCKFKFQF
1

Identify measured Fibril corresponding to KWKWQW
0

Supply reported Fibril belonging to this substance: CKYKYQY
0

Report Fibril, nothing else, for this substance: SISISRRI
0

Name the recorded Fibril of the item KNDKND in your answer.
0

Please report the measured Fibril for CKFKFQFW
1

Return reported Fibril. Input substance: KYKYQY
0

Give reported Fibril value for CEFEFQFNMWQ
1

----------
protocol: β-sheet content by ATR-FT-IR
Type: physicochemical
measurement-context: Fig. S7 panel A; β-sheet content by ATR-FT-IR
Can you tell me b -sheet / % for the items I'm about to list?
I only need the number, in %, no unit after it.

State its b -sheet / %: CKIKQII
25

Supply measured b -sheet / % of CRFRVPF in your reply.
11.43

Let me know recorded b -sheet / % for QCKFKFQFNMWQ , thanks.
47.0491

Provide only the value of recorded b -sheet / % for KFKFQFNMWQ
43.15

Specify reported b -sheet / % for the substance shown: KFKFQFFF
49.11

Give b -sheet / % for KFKFQFN
38.13

----------
Type: physicochemical
measurement-context: FigS26
For each entry below, report its Tht category (> 1.5 to blank = +) value.

Identify measured Tht category (> 1.5 to blank = +) associated with NMWQKIKIQI [JG9]
1 (Tht category (> 1.5 to blank = +))

Respond only with Tht category (> 1.5 to blank = +) recorded for KAKAQANMWQ [JG3]
0 (Tht category (> 1.5 to blank = +))

Specify measured Tht category (> 1.5 to blank = +) for KIKIQINMAQ [JR2] .
0 (Tht category (> 1.5 to blank = +))

Note Tht category (> 1.5 to blank = +) for the substance shown: KIKIQIAMWQ [JR4]
1 (Tht category (> 1.5 to blank = +))

Name the recorded Tht category (> 1.5 to blank = +) of the substance listed here: RGDKIKIQINMWQ [MG9a]
0 (Tht category (> 1.5 to blank = +))

Identify measured Tht category (> 1.5 to blank = +) associated with KIKIQIC [TM112 / CN11]
1 (Tht category (> 1.5 to blank = +))

Look up and report measured Tht category (> 1.5 to blank = +) for this entry: KIKIQINMWA [JR1]
0 (Tht category (> 1.5 to blank = +))

Tell me Tht category (> 1.5 to blank = +) reported for RGDCKIKIQINM [TM45]
0 (Tht category (> 1.5 to blank = +))

Identify Tht category (> 1.5 to blank = +) associated with the substance NMWQKAKAQA [JG10]
1 (Tht category (> 1.5 to blank = +))

Give me measured Tht category (> 1.5 to blank = +), please, for this substance: KIKIQINMWQ [JG1]
1 (Tht category (> 1.5 to blank = +))

Annotate the substance NMWQKFKFQF [JG11] with its measured Tht category (> 1.5 to blank = +).
0 (Tht category (> 1.5 to blank = +))

Find the measured Tht category (> 1.5 to blank = +) of KIKIQIRGD [MG6] and report it.
1 (Tht category (> 1.5 to blank = +))

For the substance KIKIQINMWQRGD [VH17-II] , report Tht category (> 1.5 to blank = +).
0 (Tht category (> 1.5 to blank = +))

Supply Tht category (> 1.5 to blank = +) value. Item: RGDKIKIQIC [MG7/CN1]
1 (Tht category (> 1.5 to blank = +))
